target: LAP2, Q96RT1; test: holdup assay; parameters: key: below the threshold = too weak to quantify, mostly under pKd 3.1 to 4; settings: plain residues with an end cap or a label only (N-terminal biotin on a linker: ado-ado)
Sequence (Q96RT1 other isoform, or with tags, fused parts or gaps): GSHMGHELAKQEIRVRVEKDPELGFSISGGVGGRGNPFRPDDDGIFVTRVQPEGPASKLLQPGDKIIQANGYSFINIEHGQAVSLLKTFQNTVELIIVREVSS
REPORTED PROPERTY: pKd

| BINDER | REPORTED RESULT |
| --- | --- |
| PEKVSNTTVV [IGSF5, Q9NSI5] | below the threshold |
| SKQFDKNAYV [CLDN10, P78369] | below the threshold |
| GSQSQVETEA [FKBP4, Q02790] | below the threshold |
| SSSVNVSSNL [CXCR1, P25024] | below the threshold |
| PDSYHRRDFW [U2AF2, P26368] | below the threshold |
| AKADAQESRL [PLCB2, Q00722] | below the threshold |
| PLATCDETSI [SEMA4F, O95754] | below the threshold |
